The measured values listed here are drawn from paper PMC6566870.

# Assay Target: T1, N-terminally His6-tagged cMyc-tagged human CCR1 (human, UniProt P32246 1-355)
# T1 construct: C-C chemokine receptor 1 (CCR1), human; stably expressed in Flp-In T-REx 293 cells; also called chemokine receptor 1; source: Flp-In T-REx 293 cells, stably expressed; not shown: His6, N-terminal, kept; cMyc, N-terminal, kept
# T1 sequence (looked up): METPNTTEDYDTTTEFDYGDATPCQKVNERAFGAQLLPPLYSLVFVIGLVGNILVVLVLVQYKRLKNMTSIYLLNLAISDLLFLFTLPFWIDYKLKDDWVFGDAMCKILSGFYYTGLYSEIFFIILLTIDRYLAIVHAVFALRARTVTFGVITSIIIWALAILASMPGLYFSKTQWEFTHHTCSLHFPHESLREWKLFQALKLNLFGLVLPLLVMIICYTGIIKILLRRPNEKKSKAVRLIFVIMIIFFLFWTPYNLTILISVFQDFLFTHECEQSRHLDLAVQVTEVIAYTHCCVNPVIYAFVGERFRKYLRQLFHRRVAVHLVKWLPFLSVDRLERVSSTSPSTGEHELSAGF
# Assay Info: radioligand binding; competitive displacement of 50 pM 125I-CCL3 from membranes of Flp-In T-REx 293 cells expressing CCR1; 2 h at 37 °C; two sets of experiments (Table 1, Table 3)
# Experimental Setup: one partner purified
Observation Type: pIC50
The meaning of pIC50 here: minus log10 of the concentration in molar units.

In: // pIC50 lookup, key: CCL8 (Lys-46 allele, Pro-8→Ala) (ligand, human, UniProt P80075 24-99, looked up, CCL8 (MCP-2), human, Lys-46 allele, with Pro-8→Ala to make the protein monomeric; N-terminal region of ten residues before the CC motif; also called MCP-2; not shown: His6, N-terminal, cleaved) QPDSVSIAITCCFNVINRKIPIQRLESYTRITNIQCPKEAVIFKTKRGKEVCADPKERWVRDSMKHLDQIFQNLKP
Out: 8.64
